- Tested on: chymotrypsin
- Assay explanation: In vitro digestion stability, chymotrypsin
- Assay type: in vitro ADME
- Stated conditions: simulated gastrointestinal digestion, individually or continuously, compared with before digestion, peptide 0.5 mg/mL (TEAC), 1.0 mg/mL (superoxide), n = 3
Residues, ends and D or L forms follow the SMILES beside them.
Endpoint: TEAC and superoxide anion radical scavenging activity after digestion by chymotrypsin

Notebook: N=C(N)NCCC[C@H](N)C(=O)N[C@@H](CC(N)=O)C(=O)N[C@@H](Cc1ccccc1)C(=O)O [peptide 3, Arg-Asn-Phe] (H-Arg-Asn-Phe-OH) , TEAC and superoxide anion radical scavenging activity after digestion by chymotrypsin read as significant reduction

Notebook: N[C@@H](Cc1c[nH]c2ccccc12)C(=O)N[C@@H](Cc1ccccc1)C(=O)O [peptide 5, Trp-Phe] (H-Trp-Phe-OH) , TEAC and superoxide anion radical scavenging activity after digestion by chymotrypsin read as significant reduction
